Provenance of the data: patent US20230091047A1

Assay Remarks: in vitro
Assay type: cell-based
Measurement Context: human, HepG2 or HepG2.117 cells, ATPlite, 3-days incubation (not marked with *), mean value
Experimental Endpoint: CC50 at 3 days

[[record]]
molecule = "CCN(CC)c1nc2c(c(=O)n1-c1ccc(C(=O)NC)nc1)C[C@@H](C)N(C(=O)c1ccc(Cl)c(Cl)c1)C2 [Compound C625]"
experimental_endpoint = "CC50 at 3 days"
data_value = "> 50 µM"

[[record]]
molecule = "CNC(=O)c1ccc(-n2c(O[C@H](C)C(C)C)nc3c(c2=O)C[C@@H](C)N(C(=O)c2ccc(Cl)c(Cl)c2)C3)cc1 [Compound C458]"
experimental_endpoint = "CC50 at 3 days"
data_value = "24.8 µM"

[[record]]
molecule = "CNC(=O)c1ccc(-n2c(NCC(CO)C3CC3)nc3c(c2=O)C[C@@H](C)N(C(=O)c2ccc(Cl)c(Cl)c2)C3)cc1 (some centres unmarked) [Compound C482]"
experimental_endpoint = "CC50 at 3 days"
data_value = "> 50 µM"

[[record]]
molecule = "CNC(=O)c1ncc(-n2c(O)nc3c(c2=O)C[C@@H](C)N(C(=O)c2ccc(Cl)c(Cl)c2)C3)n1C [Compound C626]"
experimental_endpoint = "CC50 at 3 days"
data_value = "> 50 µM"

[[record]]
molecule = "CNC(=O)c1ccc(-n2c(N[C@H](c3ccc(OC)cc3)C(C)C)nc3c(c2=O)C[C@@H](C)N(C(=O)c2ccc(Cl)c(Cl)c2)C3)cc1 (single isomer, unassigned) [Compound C422b]"
experimental_endpoint = "CC50 at 3 days"
data_value = "17.2 µM"

[[record]]
molecule = "CNC(=O)c1ccc(-n2c(NC(C)c3cccs3)nc3c(c2=O)C[C@@H](C)N(C(=O)c2ccc(Cl)c(Cl)c2)C3)cc1 (some centres unmarked) [Compound C550]"
experimental_endpoint = "CC50 at 3 days"
data_value = "30.2 µM"

[[record]]
molecule = "CNC(=O)c1cc(-n2c(N[C@@H](C)c3ccc(OC(F)(F)F)cc3)nc3c(c2=O)C[C@@H](C)N(C(=O)c2ccc(Cl)c(Cl)c2)C3)[nH]n1 [Compound C607]"
experimental_endpoint = "CC50 at 3 days"
data_value = "11.4 µM"

[[record]]
molecule = "CNC(=O)c1ccc(-n2c(N[C@H](C)c3ccc4[nH]ccc4c3)nc3c(c2=O)C[C@@H](C)N(C(=O)c2ccc(Cl)c(Cl)c2)C3)cc1 (single isomer, unassigned) [Compound C449a]"
experimental_endpoint = "CC50 at 3 days"
data_value = "> 50 µM"

[[record]]
molecule = "CNC(=O)c1ccc(-n2c(NC(C)C)nc3c(c2=O)C[C@@H](C)N(C(=O)c2cc4c(Br)c(C)ccc4[nH]2)C3)cc1 [Compound C471]"
experimental_endpoint = "CC50 at 3 days"
data_value = "21.6 µM"

[[record]]
molecule = "CNC(=O)c1ccc(-n2c(N(C)Cc3cnc4ccc(Cl)cn34)nc3c(c2=O)C[C@@H](C)N(C(=O)c2ccc(Cl)c(Cl)c2)C3)cc1 [Compound C562]"
experimental_endpoint = "CC50 at 3 days"
data_value = "26.8 µM"

[[record]]
molecule = "CNC(=O)c1ccc(-n2c(NC(C)C)nc3c(c2=O)C[C@@H](C)N(C(=O)c2cc4sc(Br)cc4[nH]2)C3)cc1 [Compound C591]"
experimental_endpoint = "CC50 at 3 days"
data_value = "23.2 µM"

[[record]]
molecule = "CNC(=O)c1ccc(-n2c(NC(C)C)nc3c(c2=O)C[C@@H](C)N(C(=O)c2ccc(Cl)cc2F)C3)cc1 [Compound C520]"
experimental_endpoint = "CC50 at 3 days"
data_value = "> 50 µM"

[[record]]
molecule = "CNC(=O)c1ccc(-n2c(N3CC4CC3C4)nc3c(c2=O)C[C@@H](C)N(C(=O)c2ccc(Cl)c(Cl)c2)C3)cc1 [Compound C408]"
experimental_endpoint = "CC50 at 3 days"
data_value = "> 50 µM"

[[record]]
molecule = "CNC(=O)c1ccc(-n2c(NC(C)C)nc3c(c2=O)C[C@@H](C)N(C(=O)c2ccc(C#N)c(Cl)c2)C3)cc1 [Compound C508]"
experimental_endpoint = "CC50 at 3 days"
data_value = "> 50 µM"

[[record]]
molecule = "CNC(=O)c1ccc(-n2c(N[C@H](C)c3ccc(OC)c(OC)c3)nc3c(c2=O)C[C@@H](C)N(C(=O)c2ccc(Cl)c(Cl)c2)C3)cc1 (single isomer, unassigned) [Compound C415a]"
experimental_endpoint = "CC50 at 3 days"
data_value = "32.9 µM"

[[record]]
molecule = "CNC(=O)c1ccc(-n2c(NC(C)C)nc3c(c2=O)C[C@@H](C)N(C(=O)c2ccc(Br)c(OC(C)C)c2)C3)cc1 [Compound C575]"
experimental_endpoint = "CC50 at 3 days"
data_value = "> 50 µM"

[[record]]
molecule = "CNC(=O)c1ccc(-n2c(NCc3cnn(C)n3)nc3c(c2=O)C[C@@H](C)N(C(=O)c2ccc(Cl)c(Cl)c2)C3)cc1 [Compound C560]"
experimental_endpoint = "CC50 at 3 days"
data_value = "> 50 µM"

[[record]]
molecule = "CC(C)Nc1nc2c(c(=O)n1-c1cccc(-n3ccnn3)c1)C[C@@H](C)N(C(=O)c1ccc(Cl)c(Cl)c1)C2 [Compound C442]"
experimental_endpoint = "CC50 at 3 days"
data_value = "> 50 µM"

[[record]]
molecule = "CNC(=O)c1ccc(-n2c(N[C@@H]3C[C@H]3c3ccc(OC)cc3)nc3c(c2=O)C[C@@H](C)N(C(=O)c2ccc(Cl)c(Cl)c2)C3)cc1 (single isomer, unassigned) [Compound C452a]"
experimental_endpoint = "CC50 at 3 days"
data_value = "> 25 µM"

[[record]]
molecule = "CCN(Cc1ccc2c(c1)OCO2)c1nc2c(c(=O)n1-c1ccc(C(=O)NC)cc1)C[C@@H](C)N(C(=O)c1ccc(Cl)c(Cl)c1)C2 [Compound C605]"
experimental_endpoint = "CC50 at 3 days"
data_value = "> 50 µM"

[[record]]
molecule = "CNC(=O)c1ccc(-n2c(N3CCOCC(C)C3)nc3c(c2=O)C[C@@H](C)N(C(=O)c2ccc(Cl)c(Cl)c2)C3)cc1 (some centres unmarked) [Compound C518]"
experimental_endpoint = "CC50 at 3 days"
data_value = "> 50 µM"

[[record]]
molecule = "CNC(=O)c1ccc(-n2c(NC(C)C)nc3c(c2=O)C[C@@H](C)N(C(=O)c2cnc4ccccc4n2)C3)cc1 [Compound C675]"
experimental_endpoint = "CC50 at 3 days"
data_value = "> 50 µM"

[[record]]
molecule = "CNC(=O)c1ccc(-n2c(NC(C)C)nc3c(c2=O)C[C@@H](C)N(C(=O)c2ccc(Cl)c(C(F)(F)F)c2)C3)c(Cl)c1 (single isomer, unassigned) [Compound C639a]"
experimental_endpoint = "CC50 at 3 days"
data_value = "> 50 µM"

